Assay: NCI Yeast Anticancer Drug Screen. Data for the cln2 rad14 strain (AID 165);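 note: 0% = growth equal to vehicle treated cultures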
Details: S. cerevisiae cln2 rad14 strain, at 50.0 µM (retest, dose inferred, filed as 5.0)
Compounds without any hit were thinned out: in the full panel of roughly 79,000, 15% have a hit. Activity calls are given as the source filed them. Cut-off read from the data, not from the text of the source: active = growth inhibition above about 70%; inactive = the rest.
One label from this list, please: class 1 (active), class 0 (inactive)

{"columns": ["Compound", "Discrete label"],
 "data": [
  ["CC(C)CCCC(O)CNCc1ccccc1 (stereo not given)", "class 0"],
  ["CCN(CC)C1Oc2cc3c(cc2C(c2ccc(OC)cc2)C1C)OCO3 (stereo not given)", "class 1"],
  ["NNc1ccccc1[N+](=O)[O-]", "class 1"],
  ["CS[C@H]1CC[C@H]2[C@@H]3CCc4cc(O)ccc4[C@H]3CC[C@]12C", "class 1"]
]}

Problem: Record request — test call for `C=C(CN(C)C)C(=O)c1ccc(C)cc1C`
Solution: class 1

Problem: Record request — test call for `CSC(SC)(C(=O)O)c1cc(C)no1`
Solution: class 0

Problem: Record request — test call for Cn1cc(CCC(=O)C2C=CC=CC2=NC(=O)CCCl)c2ccccc21 (stereo not given)
Solution: class 0

Problem: Record request — test call for `COc1cc2c(c(C)c1O)[C@H]1COc3ccccc3[C@H]1O2`
Solution: class 0

Problem: Record request — test call for `CCCCCOC(=S)SSSC(=S)OCCCCC`
Solution: class 0

====

Attribute: growth inhibition
Assay: NCI Yeast Anticancer Drug Screen. Data for the mlh1 rad18 strain (AID 175)
Details: S. cerevisiae mlh1 rad18 strain growth inhibition; at 50.0 µM (retest, dose inferred, filed as 5.0); stronger effect = higher value
This is part of a sample that, as a whole, favours compounds with a hit. Of some 79,000 tested, about 15% had one in any assay.
Write down the numeric answer in % and omit the unit.

Please review the following examples before continuing.
{"columns": ["Molecule", "Unit abbrev", "growth inhibition"],
 "data": [
  ["CC1SC(c2ccc(Cl)cc2)N2C(=O)C(C)SC(c3ccc(Cl)cc3)N2C1=O (centres undefined)", "%", 90],
  ["CC(=O)OCCCCCCCCCCCCCCO", "%", 98],
  ["Cc1nn(C(=O)c2ccccc2O)c2c1C(c1ccc(O)cc1O)SC(N)=N2 (centres undefined)", "%", 54],
  ["Cc1ccc2cccc(N)c2c1", "%", 8],
  ["COC(=O)c1ccc(C)cc1C1CN=NC12Cc1cccc(C)c1C2=O (centres undefined)", "%", 6]
]}

Problem: Recorded growth inhibition for `c1csc(-c2nccc3c2[nH]c2ccccc23)c1` , please?
Solution: 94

Problem: Recorded growth inhibition for `[Pt].c1ccc(P(CCP(CCP(c2ccccc2)c2ccccc2)CCP(c2ccccc2)c2ccccc2)c2ccccc2)cc1` , please?
Solution: 89

====

Test: NCI Yeast Anticancer Drug Screen. Data for the cln2 rad14 strain (AID 165);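 note: 0% = growth equal to vehicle treated cultures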
Details: S. cerevisiae cln2 rad14 strain, at 5.0 µM (retest, dose inferred, filed as 0.5), stronger effect = higher value
This is part of a sample that, as a whole, favours compounds with a hit. Of some 79,000 tested, about 15% had one in any assay.
Value kind: growth inhibition (%)
Write down the numeric answer in % and omit the unit.

{"columns": ["Compound", "Value kind", "Recorded number"],
 "data": [
  ["Oc1cc(Cc2ccccc2)c(Cc2ccccc2)cc1O", "growth inhibition", -1],
  ["COc1cc2c(cc1O)CCN[C@@]21CS[C@H]2c3c(OC(C)=O)c(C)c4c(c3C(COC1=O)N1C2C2c3c(cc(C)c(OC)c3O)CC([C@@H]1O)N2C)OCO4 (stereo not given in full)", "growth inhibition", 99],
  ["O=[N+]([O-])c1ccc(O)c(C=Nc2ccccc2)c1", "growth inhibition", -57],
  ["CC1SC2(C(=O)Nc3ccc(Br)cc32)N(c2ccc(Cl)cc2)C1=O (stereo not given)", "growth inhibition", -3],
  ["CCOC(=O)/C=C1/C(=O)OC2C1OC1OC(C)(C)OC12 (stereo not given)", "growth inhibition", 37]
]}

Okay, next one:
Problem: Recorded growth inhibition for `CC(C)C(=O)/C=C/c1c(Cl)cccc1Cl` , please?
Solution: 16

Source listed as PubChem BioAssay (NCI).
